Source of measurements: patent US20250296914A1

# Tested on: SARS-CoV-2 stock strain NL/2020
# EXPERIMENTAL PROTOCOL: Intracellular viral antigen (N protein) accumulation by immunofluorescence, A549-ACE2
# Assay type: cell-based
# CONDITION PARAMETERS: Severe acute respiratory syndrome coronavirus 2; A549-ACE2, MOI 0.005, viral antigen staining, 48 h
ASSAY ENDPOINT: pEC50
When answering, recall that pEC50 equals minus log10 of the concentration in mol/L, and write that number alone.

Recorded results for 5 compounds are shown here.
INSERT INTO assay_data (compound, assay_endpoint, reported) VALUES
  ('COC(=O)c1cc(-c2ccnc(N3CCOCC3)c2)ccc1NC(C#N)[C@H](Cc1c[nH]c2ccccc12)NC(=O)OC(C)(C)C (stereo partly drawn)', 'pEC50', 5.96),
  ('CC(C)(C)OC(=O)N[C@@H](Cc1c[nH]c2ccccc12)C(C#N)Nc1ccc(Cl)cc1C(=O)c1ccccc1 (stereo partly drawn)', 'pEC50', 6.22),
  ('COC(=O)c1cc(-c2ccc3c(c2)OCCO3)ccc1NC(C#N)[C@H](Cc1c[nH]c2ccccc12)NC(=O)OC(C)(C)C (stereo partly drawn)', 'pEC50', 6.00),
  ('COC(=O)c1ccc(Br)cc1NC(C#N)[C@H](Cc1c[nH]c2ccccc12)NC(=O)OC(C)(C)C (stereo partly drawn)', 'pEC50', 5.70),
  ('COC(=O)c1cc(-c2cc(OC(C)C)ccc2F)ccc1NC(C#N)[C@H](Cc1c[nH]c2ccccc12)NC(=O)OC(C)(C)C (stereo partly drawn)', 'pEC50', 5.30);

Record request: pEC50 value, item CCOC(=O)c1ccccc1NC(C#N)[C@H](Cc1c[nH]c2ccccc12)NC(=O)OC(C)(C)C (stereo partly drawn)
5.40

What would you report for COC(=O)c1cc(-c2ccc(N3CCOCC3)nc2)ccc1NC(C#N)[C@H](Cc1c[nH]c2ccccc12)NC(=O)OC(C)(C)C (stereo partly drawn) ?
5.70

What would you report for COC(=O)c1cc(Br)ccc1NC(C#N)[C@H](Cc1c[nH]c2ccccc12)NC(=O)OC(C)(C)C (stereo partly drawn) ?
5.74
